Compiled literature pIC50, tested on CD73 (Homo sapiens (Human)).
pIC50: −log10 of the molar value.

Below, each entry is followed by its recorded pIC50 result.
O=C(NC1CCC(F)(F)CC1)O[C@@H]1CCN(c2cnn(CC(O)C(F)(F)F)c(=O)c2Cl)C1 (some centres unmarked) ... 5.00 to 9.00
CC1(C)CC(NC(=O)O[C@@H]2CCN(c3cn[nH]c(=O)c3Cl)C2)C1 ... 5.00 to 9.00
O=P(O)(O)CP(=O)(O)OC[C@H]1O[C@@H](n2cnc3c(N4CCC5(CCCCC5)C4)nc(Cl)nc32)[C@@H](O)C1O (some centres unmarked) ... > 8.00

Next, consider the following compound.
query: # return recorded pIC50 for input `O=P(O)(O)CS(=O)(=O)NC[C@H]1O[C@@H](n2ncc3c(NCc4ccccc4Cl)nc(Cl)nc32)[C@H](O)[C@@H]1O`
result: ≥ 6.30
